- assay info: sensitizers of A549 cells to miR-34 induction, primary screen, imaging, A549 dox-inducible miR-34, nuclei and caspase counts (AID 1347080); also: test concentration not given here
- test context: A549 miR-34 inducible, Hoechst nuclei count, 48 h; measured here: relative caspase fold change +Dox/-Dox
Binned fold change; ranges: bin A (below 1), bin B (1 to below 2), bin C (2 or more)

CCC(=O)OCC(=O)[C@@]1(OC(=O)CC)[C@@H](C)CC2C3CCC4=CC(=O)C=C[C@]4(C)C3(F)[C@@H](O)C[C@@]21C (some centres undefined) = bin C

Ask: Categorize the following entry: CCC(=O)Oc1ccc2c(c1)CCC1C2CC[C@@]2(C)C1CC[C@@H]2OC(=O)CC (some centres undefined)
Result: bin A

Ask: Categorize the following entry: CC(C)C[C@@H](NC(=O)OCC1c2ccccc2-c2ccccc21)C(=O)O
Result: bin A

Ask: Categorize the following entry: CSCC[C@H](NC(=O)[C@H](Cc1c[nH]c2ccccc12)NC(=O)[C@H](C)NC(=O)OC(C)(C)C)C(=O)N[C@@H](CC(=O)O)C(=O)N[C@@H](Cc1ccccc1)C(N)=O
Result: bin A

Ask: Categorize the following entry: CCOC(=O)[C@@H](CCc1ccccc1)N[C@@H](C)C(=O)N1CCC[C@H]1C(=O)O
Result: bin A

Ask: Categorize the following entry: O=C1/C(=C/c2cccs2)CCC/C1=C\c1cccs1
Result: bin B

Ask: Categorize the following entry: C#C[C@]1(O)CCC2C3CCC4=C(CCC(=O)C4)C3CC[C@@]21C (some centres undefined)
Result: bin B

Ask: Categorize the following entry: Nc1ncnc2c1ncn2[C@@H]1O[C@H](CO)C[C@H]1O
Result: bin B

Ask: Categorize the following entry: Nc1ccccc1S(N)(=O)=O
Result: bin B

Ask: Categorize the following entry: CC1(C)C2CCC1(CS(=O)(=O)O)C(=O)/C2=C\c1ccc(/C=C2\C(=O)C3(CS(=O)(=O)O)CCC2C3(C)C)cc1
Result: bin B

----------
- system: Plasmodium falciparum protein kinase 6 (PK6, PF3D7_1337100) (UniProt Q8IDW1)
- assay info: PfPK6 kinase inhibitors, biochemical, TCAMS library (AID 1159586)
- test context: recombinant PfPK6, Kinase-Glo ATP depletion luminescence
Measured potencies and affinities stand elsewhere. Calls of active or inactive are those of the source. The rule behind the calls is not given here.
measurement kind: outcome

COc1cccc2c(O)c(CNC3CCCCC3)ccc12 = inactive
COC(=O)Cn1c(C2CCN(CC3CCC(NC(=O)/C=C/c4ccc(Cl)c(Cl)c4)CC3)CC2)nc2ccccc21 (stereo not given) = inactive
Cc1cccc2[nH]c(-c3ccc(-c4ccc(NC(=O)NCc5ccc(F)cc5)cc4)cc3)nc12 = inactive
O=C(Nc1ccccc1)Nc1cccc(-c2ccc(-c3nc4ccc(C(F)(F)F)cc4[nH]3)cc2)c1 = inactive
N#Cc1ccc(-c2cnc3ccc(NCCc4cccnc4)nn23)cc1 = inactive

Ask: Quick one: outcome for Oc1cc(Nc2ccnc3cc(I)ccc23)c(F)cc1Cl ?
Result: inactive

Ask: Quick one: outcome for CC1(C)N=C(N)N=C(N)N1OCOc1cc(Cl)c(Cl)cc1Cl ?
Result: inactive

Ask: Quick one: outcome for C=CCNC(=O)C(C)c1ccc2cc(OC)ccc2c1 (stereo not given) ?
Result: inactive

Ask: Quick one: outcome for COc1ccc(CNCc2ccc(-c3ccc(CNCCc4ccccc4)cn3)cc2)cn1 ?
Result: inactive

Ask: Quick one: outcome for Cc1ccc(Nc2nc(C)cc(NCc3ccc(-n4ccnc4)cc3)n2)cc1 ?
Result: inactive

Ask: Quick one: outcome for CC(C)CCNCC(O)Cn1c2ccc(Cl)cc2c2cc(Cl)ccc21 (stereo not given) ?
Result: inactive

Ask: Quick one: outcome for CC(C)CNC(=O)c1ccc(-c2cccc(CN3CCC(N4CCCC4)CC3)c2)nc1 ?
Result: inactive

Ask: Quick one: outcome for O=C(NCCCCN1CCC(c2ccc3c(c2OCCCO)CCCC3)CC1)c1ccc(-c2ccc(C(F)(F)F)cc2)c(CO)c1 ?
Result: inactive

Ask: Quick one: outcome for FC(F)(F)c1ccc2nc(-c3cccc(-c4ccc(CNCc5cnn(-c6ccccc6)n5)cc4)c3)[nH]c2c1 ?
Result: inactive

Ask: Quick one: outcome for CN(C)CCN(C)Cc1ccc(-c2ccc3c(Nc4ccc(Oc5ccccc5)cc4)ccnc3c2)o1 ?
Result: inactive

Ask: Quick one: outcome for O=C(/C=C/c1ccc(Cl)c(Cl)c1)NCCCCCN1CCC(C(=O)Nc2ccc(Cl)cc2)CC1 ?
Result: inactive

Ask: Quick one: outcome for O=C(CN1C(=O)CC1S(=O)(=O)Cc1ccco1)NCCCCCCc1ccc(F)cc1 (stereo not given) ?
Result: inactive

Ask: Quick one: outcome for CCn1ccc2c(N3CCCCS3(=O)=O)cc(C(=O)N[C@@H](Cc3ccccc3)[C@H](O)CNC(C)(C)CCCC(C)C)cc21 ?
Result: inactive

Ask: Quick one: outcome for CCOC(=O)c1ccc(N2CCCCC2)c(NC(=O)C(Cl)(Cl)Cl)c1 ?
Result: inactive

Ask: Quick one: outcome for O=C(Nc1cccc(C(F)(F)F)c1)c1ccc(S(=O)(=O)NC2CCN(CC3CCCCC3)CC2)cc1 ?
Result: inactive
